Test system: CAL-120
Experiment: drug sensitivity score (DSS), CellTiter-Blue viability (DSS (AUC-based score)); higher = stronger viability inhibition; extreme values may be limits of the assay
Settings: incubation time: 72 h

molecule: O=S(=O)(c1cccc2cnccc12)N1CCCNCC1 [Fasudil]
drug sensitivity score: 0

molecule: CCN(CC)CCNC(=O)c1c(C)[nH]c(/C=C2\C(=O)Nc3ccc(F)cc32)c1C [Sunitinib]
drug sensitivity score: 0

molecule: Nc1cccc2c1CN(C1CCC(=O)NC1=O)C2=O (configuration not stated) [Lenalidomide]
drug sensitivity score: 0

molecule: CCC/C=C/C=C/C(=O)O[C@H]1/C(=C/C(=O)OC)C[C@H]2C[C@H]([C@@H](C)O)OC(=O)C[C@H](O)C[C@@H]3C[C@H](OC(C)=O)C(C)(C)[C@](O)(C[C@@H]4C/C(=C/C(=O)OC)C[C@H](/C=C/C(C)(C)[C@]1(O)O2)O4)O3 [Bryostatin 1]
drug sensitivity score: 0

molecule: Cc1c(CN2CCN(C(=O)[C@H](C)O)CC2)sc2c(N3CCOCC3)nc(-c3cnc(N)nc3)nc12 [GDC-0980]
drug sensitivity score: 17.5

molecule: CNC(=O)c1cc(Oc2ccc(NC(=O)Nc3ccc(Cl)c(C(F)(F)F)c3)cc2)ccn1 [Sorafenib]
drug sensitivity score: 0

molecule: C[C@]12C=CC(=O)C=C1CC[C@@H]1[C@@H]2[C@@H](O)C[C@@]2(C)[C@H]1CC[C@]2(O)C(=O)CO [Prednisolone]
drug sensitivity score: 0

###

Tested on: HDQ-P1
Assay: normalised viability (% of control), CellTiter-Blue; higher = more viable cells (about 100 = DMSO control)
Details: incubation time: 72 h
recorded-endpoint: normalised viability (%)

compound: CCC/C=C/C=C/C(=O)O[C@H]1/C(=C/C(=O)OC)C[C@H]2C[C@H]([C@@H](C)O)OC(=O)C[C@H](O)C[C@@H]3C[C@H](OC(C)=O)C(C)(C)[C@](O)(C[C@@H]4C/C(=C/C(=O)OC)C[C@H](/C=C/C(C)(C)[C@]1(O)O2)O4)O3 [Bryostatin 1] (100 nM)
experimental-value: 104

compound: Cc1ccc(Nc2nccc(N(C)c3ccc4c(C)n(C)nc4c3)n2)cc1S(N)(=O)=O [Pazopanib] (10000 nM)
experimental-value: 80.7

compound: Nc1ccccc1NC(=O)c1ccc(CNc2nccc(-c3cccnc3)n2)cc1 [Mocetinostat] (10000 nM)
experimental-value: 48.4

###

Tested on: MFM-223
Conditions: 72 h
Please assign Not fulfilled whenever EC50, CellTiter-Blue viability is at or above 500 nM, and Fulfilled whenever it is below.

compound: O=C1c2c(O)ccc(O)c2C(=O)c2c(NCCNCCO)ccc(NCCNCCO)c21 [Mitoxantrone]
classification: Not fulfilled

compound: Cc1c(CN2CCN(C(=O)[C@H](C)O)CC2)sc2c(N3CCOCC3)nc(-c3cnc(N)nc3)nc12 [GDC-0980]
classification: Fulfilled

compound: COc1ccc(-c2cc3c(C)nc(N)nc3n([C@H]3CC[C@H](OCCO)CC3)c2=O)cn1
classification: Fulfilled

compound: Nc1ccccc1NC(=O)c1ccc(CNc2nccc(-c3cccnc3)n2)cc1 [Mocetinostat]
classification: Not fulfilled

compound: Cc1ccc(Nc2nccc(N(C)c3ccc4c(C)n(C)nc4c3)n2)cc1S(N)(=O)=O [Pazopanib]
classification: Fulfilled

compound: C[C@]12O[C@H](C[C@]1(O)CO)n1c3ccccc3c3c4c(c5c6ccccc6n2c5c31)CNC4=O [Lestaurtinib]
classification: Fulfilled

compound: O=C(CCBr)N1CCN(C(=O)CCBr)CC1 [Pipobroman]
classification: Not fulfilled
